Cited source for all entries: ChEMBL document CHEMBL1151693

# experiment: Tmax in Sprague-Dawley rat at 3 mg/kg, po
# Assay type: ADME, organism-based
# Design: dose 3 mg/kg, route oral
# condition notes: in vivo
attribute measured: Tmax
A bare number is not enough; add the unit after it.

Request: Reported Tmax for `O=C(Nc1c(F)cc2c(c1F)CCC(F)(F)[C@@H]2O)c1cc2cc(Cl)ccc2[nH]1` : what is it?
Response: 30 min

###

# experiment: Total clearance in Sprague-Dawley rat at 1 mg/kg, iv
# Format: ADME, organism-based
# Parameters: dose 1 mg/kg, route intravenous
# condition notes: in vivo
attribute measured: clearance (mL/min/kg)
Write the answer as a number in mL/min/kg, unit excluded.

Request: Sample `O=C(Nc1c(F)cc2c(c1F)CCC(F)(F)[C@@H]2O)c1cc2cc(Cl)ccc2[nH]1` — what was its clearance?
Response: 17.9
